system: greenhouse red spider mite (Tetranychus urticae); assay: Tetranychus urticae spray test, OP-resistant (TETRUR), bean leaf disks; assay type: in vivo; conditions: Tetranychus urticae, foliar, 144 h, application rate 500 g/ha, after 6 days; read-out: efficacy (spider mites killed)
Assay endpoint: pest or weed control at 500 g/ha (%)
Enter your answer as a number in %; do not include the unit.

As a guide, the following entries are already answered.
compound="Cc1cc(F)c(/N=C2\\SCC(=O)N2C2CC2)cc1[S+]([O-])CC(F)(F)F (stereo not drawn) [Ib-135]" measured_on="greenhouse red spider mite (Tetranychus urticae)" quantitative_result=100
compound="Cc1cc(F)c(/N=C(\\N)C2CC2F)cc1SCC(F)(F)F (stereo not drawn) [Ia-33]" measured_on="greenhouse red spider mite (Tetranychus urticae)" quantitative_result=100
compound="Cc1cc(F)c(/N=C(\\N)C(F)F)cc1[S+]([O-])CC(F)(F)F (stereo not drawn) [Ib-43]" measured_on="greenhouse red spider mite (Tetranychus urticae)" quantitative_result=100
compound="N/C(=N\\c1cc(SCC(F)(F)F)c(Cl)cc1Cl)c1cccnc1 [Ia-141]" measured_on="greenhouse red spider mite (Tetranychus urticae)" quantitative_result=100
compound="Cc1cc(F)c(/N=C(\\NCC(F)(F)F)C2CCC2)cc1SCC(F)(F)F [Ia-261]" measured_on="greenhouse red spider mite (Tetranychus urticae)" quantitative_result=90

-- ask Given the entry Cc1cc(F)c(/N=C(/c2ccccc2Cl)N2CCOCC2)cc1SCC(F)(F)F [Ia-230] , report its measured pest or weed control at 500 g/ha.
-- reply 100

-- ask Given the entry Cc1cc(F)c(/N=c2\sc(C)c(C)n2CC(F)(F)F)cc1[S+]([O-])CC(F)(F)F (stereo not drawn) [Ib-158] , report its measured pest or weed control at 500 g/ha.
-- reply 90

-- ask Given the entry Cc1cc(C)c([S+]([O-])CC(F)(F)F)cc1/N=C(/c1ccccc1Cl)N(C)C (stereo not drawn) [Ib-147] , report its measured pest or weed control at 500 g/ha.
-- reply 90

-- ask Given the entry Cc1cc(Cl)c(/N=C(\N)C(F)F)cc1SCC(F)(F)F [Ia-48] , report its measured pest or weed control at 500 g/ha.
-- reply 100

* * *

system: greenhouse red spider mite (Tetranychus urticae); assay: Tetranychus urticae spray test, OP-resistant (TETRUR), bean leaf disks; format: in vivo; details: Tetranychus urticae, foliar, 144 h, application rate 500 g/ha, after 6 days; read-out: efficacy (spider mites killed)
Catalogue of pest or weed control at 500 g/ha readings, one per entry.
Enter your answer as a number in %; do not include the unit.

As a guide, the following entries are already answered.
molecule="Cc1cc(F)c(/N=C2\\CCCN2C(C)C(F)(F)F)cc1SCC(F)(F)F (stereo not drawn)" unit_string=% quantitative_result=100
molecule=COC/C(N)=N/c1cc(SCC(F)(F)F)c(Cl)cc1Cl unit_string=% quantitative_result=90
molecule=Cc1cc(F)c(/N=C(/c2cccnc2)N(C)C)cc1SCC(F)(F)F unit_string=% quantitative_result=90

-- ask Given the entry Cc1cc(Cl)c(SCC(F)(F)F)cc1/N=C(\N(C)C)C(F)(F)F , report its measured pest or weed control at 500 g/ha.
-- reply 100

-- ask Given the entry Cc1cc(C)c([S+]([O-])CC(F)(F)F)cc1/N=C1\CCCN1C(C)C(F)(F)F (stereo not drawn) , report its measured pest or weed control at 500 g/ha.
-- reply 100

-- ask Given the entry Cc1cc(F)c(/N=C(/c2cccnc2)N(C)C)cc1[S+]([O-])CC(F)(F)F (stereo not drawn) , report its measured pest or weed control at 500 g/ha.
-- reply 100

-- ask Given the entry C#CCN/C(=N\c1cc(SCC(F)(F)F)c(C)cc1F)C1CC1 , report its measured pest or weed control at 500 g/ha.
-- reply 100

-- ask Given the entry Cc1cc(C)c([S+]([O-])CC(F)(F)F)cc1/N=C(\N)C1(Cl)CC1 (stereo not drawn) , report its measured pest or weed control at 500 g/ha.
-- reply 100

-- ask Given the entry Cc1cc(C)c([S+]([O-])CC(F)(F)F)cc1/N=C1\SCC(=O)N1CC(F)(F)F (stereo not drawn) , report its measured pest or weed control at 500 g/ha.
-- reply 100
